What logD was measured for each of the following?
- test-details: Lipophilicity, logD of the compound in octanol/buffer at pH 7.4 by shake flask method
- Assay type: physicochemical
Give bare numbers.

Solved entries:
# query: logD of entry COc1cc(F)ccc1-c1ccnc2[nH]c(C3CCN(C)CC3)cc12
2.6

Can you look up the measured logD of CC(C)Cn1cc(-c2ccnc3[nH]c(C4CCN(CC(=O)N(C)C)CC4)cc23)ccc1=O for me?
2

# logD lookup, item COc1cc(F)ccc1-c1ccnc2[nH]c(-c3ccc(CN4CCOCC4)cc3)cc12
4.4

What value of logD has been recorded for this entry: CC(C)n1cc(-c2ccnc3[nH]c(C4CCN(Cc5cccs5)CC4)cc23)ccc1=O
3.4

Shifting focus to the compound that follows.
# query: logD of entry CC(=O)N1CCC(c2cc3c(-c4ccc(=O)n(C(C)C)c4)ccnc3[nH]2)CC1
2.1

----------
- test-details: Apparent permeability of compound from apical to basolateral side in human Caco-2 cells
- Type: ADME, cell-based
outcome-measure: Papp A→B

Return reported Papp A→B; argument: COc1cc(C(=O)N2CCCC2)ccc1-c1ccnc2[nH]c(C3CCNCC3)cc12
< 0.01 ×10⁻⁶ cm/s

----------
- test-details: Volume of distribution in Han-wistar rat at […], iv
- Type: ADME
- measurement-setup: in vivo, dose 1.5 µmol/kg
outcome-measure: log10 of Vd (log10 of the value in L/kg)
Reminder: these figures are log10 of reported Vd, in L/kg before transformation.

Which log10 of Vd value belongs to COc1cc(F)ccc1-c1ccnc2[nH]c(C3CCN(CCO)CC3)cc12 ?
1.08

# get_value(readout='log10 of Vd', item= CC(C)n1cc(-c2ccnc3[nH]c(C4CCN(Cc5cccs5)CC4)cc23)ccc1=O )
0.20

Bench note: what log10 of Vd did COc1cc(C(=O)N2CCCC2)ccc1-c1ccnc2[nH]c(C3CCOCC3)cc12 show?
-0.10

Recorded log10 of Vd for CC(C)n1cc(-c2ccnc3[nH]c(C4CCN(CC(F)F)CC4)cc23)ccc1=O , please?
0.26

# query: log10 of Vd of entry CC(C)n1cc(-c2ccnc3[nH]c(C4CCN(CC(=O)N5CCCC5)CC4)cc23)ccc1=O
0.59

Bench note: what log10 of Vd did COc1cc(C(=O)N2CCCC2)ccc1-c1ccnc2[nH]c(C3CCNCC3)cc12 show?
0.76

// lookup log10 of Vd for CC(C)n1cc(-c2ccnc3[nH]c(C4CCN(CC(=O)N(C)C)CC4)cc23)cnc1=O
0.46

Now let's try a different one.
I'd like to know its log10 of Vd. The compound in question is COc1cc(F)ccc1-c1ccnc2[nH]c(C3CCN(C(C)=O)CC3)cc12
0.23

----------
Task for the reader: assign each of the following molecules its reported logD.
- test-details: Lipophilicity, logD of the compound in octanol/buffer at pH 7.4 by shake flask method
- Format: physicochemical
Answers are plain numbers.

See these solved cases before continuing.
Given the molecule CSCCn1cc(-c2ccnc3[nH]c(C4CCN(CC(=O)N(C)C)CC4)cc23)ccc1=O , what is its reported logD?
1.7

// returns reported logD for input O=C(c1ccc(-c2ccnc3[nH]c(-c4ccc(CN5CCOCC5)cc4)nc23)cc1)N1CCCC1
3.2

Fill in the blank: the reported logD of COc1cc(C(=O)N2CCCC2)ccc1-c1ccnc2[nH]c(-c3ccc(CN4CCOCC4)cc3)nc12 is ____.
2.6

# per-item lookup of logD; items listed below
1. CC(C)n1cc(-c2ccnc3[nH]c(C4CCNCC4)cc23)ccc1=O
2. COc1cc(F)ccc1-c1ccnc2[nH]c(C3CCN(CC(=O)N(C)C)CC3)cc12
3. COc1cc(F)ccc1-c1ccnc2[nH]c(C3CCN(CCO)CC3)cc12
4. COc1cc(F)ccc1-c1ccnc2[nH]c(-c3ccc(CN4CCOCC4)cc3)nc12
5. CN(C)C(=O)CN1CCC(c2cc3c(-c4ccc(=O)n(CCC5CCOCC5)c4)ccnc3[nH]2)CC1
6. COc1cc(F)ccc1-c1ccnc2[nH]c(C3CCC(NC(C)=O)C3)nc12 (centres undefined)
7. CN(C)C(=O)CN1CCC(c2cc3c(-c4ccc(=O)n(CC5CCOCC5)c4)ccnc3[nH]2)CC1
8. COc1cc(F)ccc1-c1ccnc2[nH]c(C3CCN(C(C)=O)CC3)cc12

1: -0.2; 2: 2.9; 3: 2.4; 4: 3.7; 5: 1.5; 6: 2.3; 7: 1.4; 8: 3.4

I need logD for every entry listed below, if you could help.
1. Cc1nc2ccc(-c3ccnc4[nH]c(C5CCN(CC(=O)N(C)C)CC5)cc34)cc2n1C(C)C
2. CN(C)C(=O)CN1CCC(c2cc3c(-c4ccc(=O)n(C5CCOCC5)c4)ccnc3[nH]2)CC1
3. COc1cc(F)ccc1-c1ccnc2[nH]c(C3CCNCC3)cc12
4. CCn1cc(-c2ccnc3[nH]c(C4CCN(CC(=O)N(C)C)CC4)cc23)ccc1=O
5. CN(C)C(=O)CN1CCC(c2cc3c(-c4ccc(=O)n(C)c4)ccnc3[nH]2)CC1
6. CN(C)C(=O)CN1CCC(c2cc3c(-c4ccc(=O)n(C5CCC5)c4)ccnc3[nH]2)CC1

3.1
1.1
1.2
1.2
1.1
1.9

Hello, I would appreciate it if you could give logD for each entry below.
1. CC(C)n1nc(-c2ccnc3[nH]c(C4CCN(CC(=O)N(C)C)CC4)cc23)ccc1=O
2. CNC(=O)CN1CCC(c2cc3c(-c4ccc(=O)n(C(C)C)c4)ccnc3[nH]2)CC1

1: 2; 2: 2.2

----------
- test-details: Lipophilicity, logD of the compound in octanol/buffer at pH 7.4 by shake flask method
- Type: physicochemical
outcome-measure: logD
Answers are plain numbers.

Here is how some compounds turned out for logD.
What measured logD goes with COCCn1cc(-c2ccnc3[nH]c(C4CCN(CC(=O)N(C)C)CC4)cc23)ccc1=O ?
1.1

Look up logD for this compound: CC(C)n1cc(-c2ccnc3[nH]c(C4CCN(CC(=O)N(C)C)CC4)cc23)cnc1=O
0.4

Query: logD; subject: COc1cc(C(=O)N2CCCC2)ccc1-c1ccnc2[nH]c(C3CCOCC3)cc12
3

Can you look up the measured logD of CC(C)n1cc(-c2ccnc3[nH]c(C4CCN(CC(F)F)CC4)cc23)ccc1=O for me?
2.9

Which logD value belongs to COc1cc(C(=O)N2CCCC2)ccc1-c1ccnc2[nH]c(C3CCN(CCO)CC3)cc12 ?
1.3

Quick one: give me logD for each item below, same order please.
1. COc1cc(=O)n(C)cc1-c1ccnc2[nH]c(C3CCN(CC(=O)N(C)C)CC3)cc12
2. COc1cc(F)ccc1-c1ccnc2[nH]c(C3CCOCC3)cc12
3. COc1cc(F)ccc1-c1ccnc2[nH]c([C@H]3CC[C@H](NC(C)=O)CC3)cc12
4. COc1cc(F)ccc1-c1ccnc2[nH]c(C3CCNCC3)nc12
5. COc1cc(C(=O)N2CCCC2)ccc1-c1ccnc2[nH]c(C3CCN(C(C)=O)CC3)cc12

1. 0.7
2. 3.9
3. 3.8
4. 0
5. 2.5

----------
- test-details: Dissociation constant, pKa of the compound
- Assay type: physicochemical
Assignment: determine reported pKa for the given compounds.
Answers are plain numbers.

Which pKa value is on record for CC(C)n1nc(-c2ccnc3[nH]c(C4CCN(CC(=O)N(C)C)CC4)cc23)ccc1=O ?
7.6

Requested field: pKa. Item: COc1cc(F)ccc1-c1ccnc2[nH]c(C3CCN(CC(=O)N(C)C)CC3)cc12
8

Which measured pKa value corresponds to CNC(=O)CN1CCC(c2cc3c(-c4ccc(=O)n(C(C)C)c4)ccnc3[nH]2)CC1 ?
6.9

Which pKa value belongs to CC(C)n1cc(-c2ccnc3[nH]c(C4CCN(CC(=O)N5CCCCC5)CC4)cc23)ccc1=O ?
7.8

Reported pKa for CC(C)n1cc(-c2ccnc3[nH]c(C4CCN(CC(=O)N(C)C)CC4)cc23)ccc1=O : what is it?
7.9

Working through the 5 compounds below one at a time, give pKa for each.
1. CC(C)n1cc(-c2ccnc3[nH]c(C4CCN(Cc5cccs5)CC4)cc23)ccc1=O
2. COc1cc(F)ccc1-c1ccnc2[nH]c(C3CCN(CCO)CC3)cc12
3. CC(C)n1cc(-c2ccnc3[nH]c(C4CCN(CC(=O)N5CCCC5)CC4)cc23)ccc1=O
4. COc1cc(F)ccc1-c1ccnc2[nH]c(C3CCNCC3)cc12
5. CC(C)n1cc(-c2ccnc3[nH]c(C4CCN(CC(F)F)CC4)cc23)ccc1=O

[6.5, 8.5, 7.8, 10.2, 6]

Please state, for each entry, its recorded pKa.
1. COc1cc(C(=O)N2CCCC2)ccc1-c1ccnc2[nH]c(C3CCNCC3)cc12
2. COc1cc(F)ccc1-c1ccnc2[nH]c(C3CCN(C)CC3)cc12

[10.2, 9]
